observation-type: melting point

Use these answered entries as a reference point.
molecule | melting point
O=C(Nc1ccc(-c2oc3ncnc(N4CCOCC4)c3c2-c2ccc(F)cc2)cc1)c1ccc([N+](=O)[O-])cc1 [Example 47] | > 250 °C
CN1CCN(c2ncnc3oc(-c4ccc(N)nc4)c(-c4ccccc4)c23)CC1 [Example 8] | 229 to 231 °C
COc1cc(OC)cc(-c2oc3ncnc(N4CCCCC4)c3c2-c2ccccc2)c1 [Example 2] | 152 to 153 °C
COc1ccc(-c2oc3ncnc(NC4CCCCCC4)c3c2-c2ccc(F)cc2)cc1OC [Example 115] | 180 to 182 °C
CCN(CC)c1ncnc2oc(-c3ccc(OC)c(OC)c3)c(-c3ccccc3)c12 [Example 63] | 125 to 126 °C

The molecule CN1CCN(c2ncnc3oc(-c4ccc(Cl)nc4)c(-c4ccccc4)c23)CC1 [Example 94] showed melting point equal to 173 to 175 °C

The molecule COc1cc(OC)cc(-c2oc3ncnc(N4CCN(C)CC4)c3c2-c2ccccc2)c1 [Example 113] showed melting point equal to 156 to 157 °C

The molecule COc1cc(OC)cc(-c2oc3ncnc(NC4CCCCCC4)c3c2-c2ccccc2)c1 [Example 1] showed melting point equal to 151 to 152 °C

###

We begin with a simple list: items and their reported melting point.

molecule | assay-value
CN1CCN(c2ncnc3oc(-c4ccc(N5CCOCC5)nc4)c(-c4ccccc4)c23)CC1 [Example 7] | 255 to 257 °C
COc1cc(OC)cc(-c2oc3ncnc(NC4CCCCCC4)c3c2-c2ccc(F)cc2)c1 [Example 69] | 170 to 172 °C
COc1ccc(-c2oc3ncnc(N4CCN(C)CC4)c3c2-c2ccc(F)cc2)cc1OC [Example 53] | 168 to 169 °C
CN(C)CC(=O)Nc1ccc(-c2oc3ncnc(N4CCOCC4)c3c2-c2ccc(F)cc2)cc1 [Example 35] | 228 to 235 °C
O=C(Nc1ccc(-c2oc3ncnc(N4CCOCC4)c3c2-c2ccc(F)cc2)cc1)C1CCCO1 (centres unmarked) [Example 71] | 201 to 202 °C

The molecule CN1CCN(c2ncnc3oc(-c4ccc(NC5CCCCC5)nc4)c(-c4ccccc4)c23)CC1 [Example 125] showed melting point equal to 208 to 209 °C

The molecule CN1CCC(N(C)c2ncnc3oc(-c4ccc(F)cc4)c(-c4ccc(F)cc4)c23)CC1 showed melting point equal to 180 to 181 °C

The molecule COc1cc(OC)cc(-c2oc3ncnc(NC4CCCC4)c3c2-c2ccccc2)c1 [Example 135] showed melting point equal to 153 to 154 °C

###

target: human recombinant adenosine kinase (Homo sapiens, UniProt P55263); experiment: Inhibition of human recombinant adenosine kinase; conditions: 14C-adenosine substrate, 0.5 mM ATP, 37° C., 20 min; read-out: Adenosine kinase inhibition (in vitro): IC50
Sequence (P55263 1-345 isoform P55263-2): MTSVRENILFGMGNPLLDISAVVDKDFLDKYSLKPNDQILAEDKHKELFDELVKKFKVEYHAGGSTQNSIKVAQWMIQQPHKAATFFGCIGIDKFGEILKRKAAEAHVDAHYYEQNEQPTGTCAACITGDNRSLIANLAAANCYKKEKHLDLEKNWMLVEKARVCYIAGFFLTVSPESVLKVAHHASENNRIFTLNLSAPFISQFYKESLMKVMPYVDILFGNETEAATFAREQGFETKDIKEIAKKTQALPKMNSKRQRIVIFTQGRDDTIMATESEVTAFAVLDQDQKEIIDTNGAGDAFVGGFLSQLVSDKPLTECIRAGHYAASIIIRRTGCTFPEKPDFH
We begin with a simple list: items and their reported IC50.
Report only the number, with the unit nM understood.

molecule | study-system | IC50, nM
CN1CCN(c2ncnc3oc(-c4ccc(N)nc4)c(-c4ccccc4)c23)CC1 | human recombinant adenosine kinase (Homo sapiens, UniProt P55263) | 80
CCN1CCN(c2ccc(-c3oc4ncnc(N5CCN(CC)CC5)c4c3-c3ccc(F)cc3)cn2)CC1 | human recombinant adenosine kinase (Homo sapiens, UniProt P55263) | 15
OCCNc1ccc(-c2oc3ncnc(N4CCC(O)CC4)c3c2-c2ccc(F)cc2)cn1 | human recombinant adenosine kinase (Homo sapiens, UniProt P55263) | 30
CN1CCN(c2ncnc3oc(-c4ccc(N)cc4)c(-c4ccc(F)cc4)c23)CC1 | human recombinant adenosine kinase (Homo sapiens, UniProt P55263) | 50
CN1CCN(c2ncnc3oc(-c4ccc(NCCO)nc4)c(-c4ccccc4)c23)CC1 | human recombinant adenosine kinase (Homo sapiens, UniProt P55263) | 20

The compound CN(C)CC(=O)Nc1ccc(-c2oc3ncnc(N4CCOCC4)c3c2-c2ccc(F)cc2)cc1 showed IC50 equal to 20

The compound OC1CCN(c2ccc(-c3oc4ncnc(N5CCC(O)CC5)c4c3-c3ccc(F)cc3)cn2)CC1 showed IC50 equal to 20

The compound NC1CCN(c2ccc(-c3oc4ncnc(N5CCC(N)CC5)c4c3-c3ccc(F)cc3)cn2)CC1 showed IC50 equal to 30
